experiment.summary: Plasma pharmacokinetics of lorlatinib at steady state (LC-MS/MS, non-compartmental analysis)
Format: in vivo, human
condition.context: human, plasma, oral, 75 mg/m2, Cohort A1, 75 mg/m2 per dose, C1D15, Median, N 3; read-out: Cmax

given.smiles: C[C@H]1Oc2cc(cnc2N)-c2c(nn(C)c2C#N)CN(C)C(=O)c2ccc(F)cc21
Cmax, ng/mL: 659

---

experiment.summary: Plasma pharmacokinetics of lorlatinib at steady state (LC-MS/MS, non-compartmental analysis)
Type: in vivo, human
condition.context: human, in vivo, 115 mg/m2, Cycle 1 Day 1; patient N0773; Cohort B2; 115 mg/m2 per dose; Dose 75
metric: MRT last (h)

given.smiles: C[C@H]1Oc2cc(cnc2N)-c2c(nn(C)c2C#N)CN(C)C(=O)c2ccc(F)cc21
result.number: 8.24

---

experiment.summary: Plasma pharmacokinetics of lorlatinib at steady state (LC-MS/MS, non-compartmental analysis)
Format: in vivo, human
condition.context: human, plasma, oral, 75 mg/m2, Cycle 1 Day 1; Cohort A1; 75 mg/m2 per dose; individual patients
metric: MRT last (h)

molecule: C[C@H]1Oc2cc(cnc2N)-c2c(nn(C)c2C#N)CN(C)C(=O)c2ccc(F)cc21 [Lorlatinib]
result.number: 7.77

---

experiment.summary: Plasma pharmacokinetics of lorlatinib at steady state (LC-MS/MS, non-compartmental analysis)
Assay type: in vivo, human
condition.context: Cycle 1 Day 15; Cohort A2; 150 mg per dose; individual patients
Excerpt: Lorlatinib was isolated from human plasma by a liquid-iquid extraction procedure. […] A linear-log trapezoidal method was used [NT] A best-fit method was used to estimate terminal elimination and to extrapolate any plasma concentration versus time profiles to compute [NT].

given.smiles: C[C@H]1Oc2cc(cnc2N)-c2c(nn(C)c2C#N)CN(C)C(=O)c2ccc(F)cc21
Tlast [h]: 24

---

experiment.summary: Plasma pharmacokinetics of lorlatinib at steady state (LC-MS/MS, non-compartmental analysis)
Type: in vivo, human
condition.context: human, plasma, oral, 150 mg, Cycle 1 Day 1; Cohort A2; 150 mg per dose; individual patients
metric: AUC(0-t)

given.smiles: C[C@H]1Oc2cc(cnc2N)-c2c(nn(C)c2C#N)CN(C)C(=O)c2ccc(F)cc21
result: 5920 ng·h/mL

---

experiment.summary: Plasma pharmacokinetics of lorlatinib at steady state (LC-MS/MS, non-compartmental analysis)
Format: in vivo, human
condition.context: human, plasma, oral, 60 mg/m2, steady state; Cohort A1; 60 mg/m^2 QD; read-out: Tmax
metric: Tmax (h)

compound: C[C@H]1Oc2cc(cnc2N)-c2c(nn(C)c2C#N)CN(C)C(=O)c2ccc(F)cc21 [Lorlatinib]
result.number: 2

---

experiment.summary: Plasma pharmacokinetics of lorlatinib at steady state (LC-MS/MS, non-compartmental analysis)
Type: in vivo, human
condition.context: Cycle 1 Day 15; patient N0773; Cohort B2; 115 mg/m2 per dose; Dose 75; unit assumed
metric: Tlag (h)

given.smiles: C[C@H]1Oc2cc(cnc2N)-c2c(nn(C)c2C#N)CN(C)C(=O)c2ccc(F)cc21
result.number: 0

---

experiment.summary: Plasma pharmacokinetics of lorlatinib at steady state (LC-MS/MS, non-compartmental analysis)
Assay type: in vivo, human
condition.context: human, plasma, oral, 75 mg/m2, Cycle 1 Day 1; Cohort A1; 75 mg/m2 per dose; individual patients; read-out: Tmax

given.smiles: C[C@H]1Oc2cc(cnc2N)-c2c(nn(C)c2C#N)CN(C)C(=O)c2ccc(F)cc21
Tmax: 1 h
